Data provenance: patent US20240246960A1

Assay: Pharmacokinetic study in rats (IV, PO)
Format: in vivo, Sprague-Dawley rats
Conditions: male, Sprague-Dawley; Table B; Rat Plasma; IV; 3 mg/kg; read-out: AUCINF—obs

# itemSmiles, AUC(0-inf) [ng·h/mL]
records = [
    ("O=C(N[C@H]1CC[C@@H](Oc2nc(N3CCOCC3)cc3ncccc23)CC1)c1ncccn1", 984),
]

* * *

Target: DNA-PK phosphorylation at Serine 2056 (Homo sapiens)
Construct: host or cells: FaDu
Test: Cellular Assay for Inhibition of DNA-PK Phosphorylation at Serine 2056 (FaDu cells, neocarzinostatin, sandwich ELISA)
Format: cell-based
Settings: Table 1
pIC50: −log10 of the molar value.
Entries and their measured pIC50 follow.
measurementType: pIC50

# molecule, recordedValue
measured = [
    ("O=C(N[C@H]1CC[C@@H](Oc2nc(N3CCOCC3)cc3ncccc23)CC1)c1c[nH]cn1 [Compound 144]", "> 7.00"),
    ("COc1ccc(C(=O)N[C@H]2CC[C@@H](Oc3nc(N4CCOCC4)cc4ncccc34)CC2)cc1 [Compound 112]", "6.00 to 7.00"),
    ("Cc1cc2ncnn2cc1N[C@H]1CC[C@@H](Oc2nc(N3CCOCC3)cc3ncccc23)CC1 [Compound 91]", "5.00 to 6.00"),
    ("Ic1cnc(N[C@H]2CC[C@@H](Oc3nc(N4CCOCC4)cc4ncccc34)CC2)nc1 [Compound 42]", "6.00 to 7.00"),
    ("O=C(N[C@H]1CC[C@@H](Oc2nc(N3CCOCC3)cc3ncccc23)CC1)c1cc[nH]n1 [Compound 138]", "6.00 to 7.00"),
    ("CCOCCOc1cnc(N[C@H]2CC[C@@H](Oc3nc(N4CCOCC4)cc4ncc(O)cc34)CC2)nc1 [Compound 19b]", "6.00 to 7.00"),
    ("COc1cnc(N[C@H]2CC[C@@H](Oc3nc(N4CCOCC4)cc4ncccc34)CC2)nc1 [Compound 20c]", "> 7.00"),
    ("c1cnc2cc(N3CCOCC3)nc(O[C@H]3CC[C@@H](Nc4ccn5nccc5n4)CC3)c2c1 [Compound 89]", "6.00 to 7.00"),
]

* * *

Assay: Pharmacokinetic study in rats (IV, PO)
Type: in vivo, Sprague-Dawley rats
Conditions: male, Sprague-Dawley; Table B; Rat Plasma; PO; 10 mg/kg

# itemSmiles, resultUnit, AUC(0-t)
records = [
    ("O=C(N[C@H]1CC[C@@H](Oc2nc(N3CCOCC3)cc3ncccc23)CC1)c1ncccn1", "ng·h/mL", 1450),
]

* * *

Test: Pharmacokinetic study in mice (IV, PO)
Assay type: in vivo, mice (C57BL/6)
Details: female, C57BL/6; Table A; Mouse Plasma; IV; 3 mg/kg; read-out: Cmax (5 min)

# itemSmiles, Cmax
rows = [
    ("O=C(N[C@H]1CC[C@@H](Oc2nc(N3CCOCC3)cc3ncccc23)CC1)c1ncccn1", "3660 ng/mL"),
]

* * *

Each entry below lists one item and its recorded microsomal CLint at 0.1 uM value.
Assay: Microsomal stability assay, mouse liver microsomes
Conditions: male, CD-1, mouse, liver microsomes, pH 7.4, Microsomal Stability Mouse Clint, 0.1 mg/mL microsomes; 0.1 uM compound
measurementType: microsomal CLint at 0.1 uM

# compound, recordedValue
measured = [
    ("c1ccc(N[C@H]2CC[C@@H](Oc3nc(N4CCOCC4)cc4ncccc34)CC2)nc1 [Compound 25]", "> 116 µL/min/mg"),
    ("Cc1nn([C@H]2CC[C@@H](Oc3nc(N4CCOCC4)cc4ncccc34)CC2)cc1C(F)(F)F [Compound 17g]", "> 116 µL/min/mg"),
    ("CS(=O)(=O)Nc1cnc2cc(N3CCOCC3)nc(O[C@H]3CC[C@@H](NC(=O)c4ncccn4)CC3)c2c1 [Compound 177]", "< 116 µL/min/mg"),
    ("O=C(N[C@H]1CC[C@@H](Oc2nc(N3CCOCC3)cc3ncccc23)CC1)n1cccn1 [Compound 136]", "> 116 µL/min/mg"),
    ("O=C(N[C@H]1CC[C@@H](Oc2nc(N3CCOCC3)cc3ncccc23)CC1)c1ncccn1 [Compound 123]", "< 116 µL/min/mg"),
    ("O=C(N[C@H]1CC[C@@H](Oc2nc(N3CCOCC3)cc3ncccc23)CC1)c1ccc[nH]1 [Compound 145]", "> 116 µL/min/mg"),
    ("O=C(N[C@H]1CC[C@@H](Oc2nc(N3CCOCC3)cc3ncccc23)CC1)c1cccnc1 [Compound 115]", "> 116 µL/min/mg"),
    ("CS(=O)(=O)Nc1cnc2cc(N3CCOCC3)nc(O[C@H]3CC[C@@H](n4ccnc4)CC3)c2c1 [Compound 161]", "< 116 µL/min/mg"),
    ("Cc1cnc(C(=O)N[C@H]2CC[C@@H](Oc3nc(N4CCOCC4)cc4ncccc34)CC2)nc1 [Compound 128]", "> 116 µL/min/mg"),
    ("c1cnc(N[C@H]2CC[C@@H](Oc3nc(N4CCOCC4)cc4ncccc34)CC2)nc1 [Compound 20a]", "> 116 µL/min/mg"),
    ("FC(F)Oc1cnc(N[C@H]2CC[C@@H](Oc3nc(N4CCOCC4)cc4ncccc34)CC2)nc1 [Compound 35]", "> 116 µL/min/mg"),
    ("O=C(N[C@H]1CC[C@@H](Oc2nc(N3CCOCC3)cc3ncccc23)CC1)c1ccc(F)cc1 [Compound 111]", "> 116 µL/min/mg"),
    ("Oc1cnc2cc(N3CCOCC3)nc(O[C@H]3CC[C@@H](Nc4ncccn4)CC3)c2c1 [Compound 19a]", "> 116 µL/min/mg"),
    ("Fc1cn([C@H]2CC[C@@H](Oc3nc(N4CCOCC4)cc4ncccc34)CC2)cn1 [Compound 17a]", "> 116 µL/min/mg"),
    ("O=C(N[C@H]1CC[C@@H](Oc2nc(N3CCOCC3)cc3ncccc23)CC1)c1cccnn1 [Compound 120]", "< 116 µL/min/mg"),
    ("O=C(N[C@H]1CC[C@@H](Oc2nc(N3CCOCC3)cc3ncccc23)CC1)c1nccs1 [Compound 135]", "> 116 µL/min/mg"),
    ("O=C(N[C@H]1CC[C@@H](Oc2nc(N3CCOCC3)cc3ncccc23)CC1)c1ccnnc1 [Compound 121]", "< 116 µL/min/mg"),
    ("COc1cnc(N[C@H]2CC[C@@H](Oc3nc(N4CCOCC4)cc4ncc(N)cc34)CC2)nc1 [Compound 202]", "> 116 µL/min/mg"),
    ("O=C(N[C@H]1CC[C@@H](Oc2nc(N3CCOCC3)cc3ncccc23)CC1)c1cncnc1 [Compound 122]", "> 116 µL/min/mg"),
    ("O=C(N[C@H]1CC[C@@H](Oc2nc(N3CCOCC3)cc3ncccc23)CC1)c1cnccn1 [Compound 119]", "> 116 µL/min/mg"),
    ("O=C(N[C@H]1CC[C@@H](Oc2nc(N3CCOCC3)cc3ncccc23)CC1)c1cncs1 [Compound 137]", "< 116 µL/min/mg"),
    ("O=C(N[C@H]1CC[C@@H](Oc2nc(N3CCOCC3)cc3ncccc23)CC1)C1(O)CC1 [Compound 109]", "> 116 µL/min/mg"),
    ("c1cnnc(N[C@H]2CC[C@@H](Oc3nc(N4CCOCC4)cc4ncccc34)CC2)c1 [Compound 29]", "> 116 µL/min/mg"),
    ("O=C(N[C@H]1CC[C@@H](Oc2nc(N3CCOCC3)cc3ncccc23)CC1)c1ccc(Cl)nc1 [Compound 116]", "> 116 µL/min/mg"),
]
